Answer each item with its documented MIC90.
- System: Streptococcus constellatus
- MEASUREMENT PROTOCOL: Antibacterial activity against Streptococcus constellatus by CLSI M100-S18 method
- Assay type: functional

Ask: Find the recorded MIC90 belonging to N[C@@H]1CCCCN(c2c(F)cc3c(=O)c(C(=O)O)cn(C4CC4)c3c2Cl)C1 [BESIFLOXACIN] and report it.
Reply: 0.12 µg/mL

Ask: And then NC[C@H]1O[C@H](O[C@H]2[C@H](O)[C@@H](O[C@H]3O[C@H](CO)[C@@H](O)[C@H](N)[C@H]3O)[C@H](N)C[C@@H]2N)[C@H](N)C[C@@H]1O [TOBRAMYCIN] , what is it?
Reply: > 8 µg/mL

Ask: # iterate: CC[C@H]1OC(=O)[C@H](C)[C@@H](O[C@H]2C[C@@](C)(OC)[C@@H](O)[C@H](C)O2)[C@H](C)[C@@H](O[C@@H]2O[C@H](C)C[C@H](N(C)C)[C@H]2O)[C@](C)(O)C[C@@H](C)CN(C)[C@H](C)[C@@H](O)[C@]1(C)O [AZITHROMYCIN]
Reply: 1 µg/mL

Ask: Then what about the compound C[C@H]1COc2c(N3CCN(C)CC3)c(F)cc3c(=O)c(C(=O)O)cn1c23.C[C@H]1COc2c(N3CCN(C)CC3)c(F)cc3c(=O)c(C(=O)O)cn1c23.O [LEVOFLOXACIN] ?
Reply: 4 µg/mL

Ask: How about CC1(C)S[C@@H]2[C@H](NC(=O)Cc3ccccc3)C(=O)N2[C@H]1C(=O)O [PENICILLIN G] ?
Reply: 32 µg/mL

Ask: Now the same for COc1c(N2CCNC(C)C2)c(F)cc2c(=O)c(C(=O)O)cn(C3CC3)c12 (stereo unspecified) [GATIFLOXACIN]
Reply: 1 µg/mL

* * *

- MEASUREMENT PROTOCOL: Drug concentration in human tears at 0.6% administered topically as single dose measured after 10 mins
- Type: ADME
- CONDITION PARAMETERS: topical or ocular, read-out: Drug uptake
MEASUREMENT KIND: concentration at 10 min (µg/mL)
Express it in µg/mL; write the number only.

Ask: # concentration at 10 min lookup, item N[C@@H]1CCCCN(c2c(F)cc3c(=O)c(C(=O)O)cn(C4CC4)c3c2Cl)C1 [BESIFLOXACIN]
Reply: 610

* * *

- System: Citrobacter koseri
- MEASUREMENT PROTOCOL: Antibacterial activity against Citrobacter koseri assessed as percent susceptible isolates by CLSI M7-A7 method
- Format: functional
MEASUREMENT KIND: Activity
Report the figure along with its unit, number first.

Ask: Fill in the recorded Activity for this compound, with Citrobacter koseri as test system: CC[C@H]1OC(=O)[C@H](C)[C@@H](O[C@H]2C[C@@](C)(OC)[C@@H](O)[C@H](C)O2)[C@H](C)[C@@H](O[C@@H]2O[C@H](C)C[C@H](N(C)C)[C@H]2O)[C@](C)(O)C[C@@H](C)CN(C)[C@H](C)[C@@H](O)[C@]1(C)O
Reply: 99%

Ask: And the next one, COc1c(N2CCNC(C)C2)c(F)cc2c(=O)c(C(=O)O)cn(C3CC3)c12 (centres undefined) ?
Reply: 99%

Ask: Then CC(C)(O/N=C(\C(=O)N[C@@H]1C(=O)N2C(C(=O)[O-])=C(C[n+]3ccccc3)CS[C@H]12)c1csc(N)n1)C(=O)O ?
Reply: 100%

Ask: Request: C[C@H]1COc2c(N3CCN(C)CC3)c(F)cc3c(=O)c(C(=O)O)cn1c23.C[C@H]1COc2c(N3CCN(C)CC3)c(F)cc3c(=O)c(C(=O)O)cn1c23.O
Reply: 99%
